system: UACC-257 melanoma; assay: NCI-60 one-dose screen, 48 h; settings: 10 µM unless noted
The panel holds about 83,000 compounds, 20% with a hit somewhere; the sample as a whole holds those more often. The source made the active and inactive calls. The calls were made as follows: active = growth percent below 10; inactive = the rest.
Outcome codes: active, inactive

{"COMPOUND": "COC(=O)[C@H](Cc1cn(C)cn1)NC(=O)[C@H](Cc1c[nH]c2ccccc12)NC(=O)Nc1cc(C(F)(F)F)cc(C(F)(F)F)c1", "CATEGORY LABEL": "active"}
{"COMPOUND": "CCOC(=O)C1=C(C(F)(F)F)NC(=O)NC1CN1C(=O)c2ccccc2C1=O (stereo unspecified)", "CATEGORY LABEL": "inactive"}
{"COMPOUND": "Cc1c(C(N)=O)sc2c1c(=O)n(Cc1ccccc1)c1nnc(S(C)(=O)=O)n21", "CATEGORY LABEL": "inactive"}
{"COMPOUND": "CCCCCCCCCCCCc1ccc([N+](CC)(CC)CC)cc1", "CATEGORY LABEL": "inactive"}
{"COMPOUND": "CCCCCCCCCCCCOC(=N)N(C)C", "CATEGORY LABEL": "inactive"}
{"COMPOUND": "C/C(=N\\Nc1cccc(Cl)n1)c1ccccn1", "CATEGORY LABEL": "active"}
{"COMPOUND": "CCCCCCCCC1OC1CCCCCCCC(=O)O (stereo unspecified)", "CATEGORY LABEL": "inactive"}
{"COMPOUND": "COc1ccc(C2C3(C#N)C(N)=NC(=C(C#N)C#N)C23C#N)cc1OC (stereo unspecified)", "CATEGORY LABEL": "inactive"}
{"COMPOUND": "CCCC(C)c1cc(Cc2cc(Cl)cc(Cl)c2O)c(O)c(Cc2cc(Cl)cc(Cl)c2O)c1 (stereo unspecified)", "CATEGORY LABEL": "active"}
{"COMPOUND": "COC(=O)[C@@H]1[C@H](O)[C@H](C)[C@H](O)[C@H](C)/C=C\\C=C(C)C(=O)Nc2c(C)c(OC(C)=O)c3c(c2O)C(=O)C(C)=C2OCOC(=C23)C(C)=C[C@@](C)(O)[C@H](O)[C@@H](C)[C@H]1OC(C)=O", "CATEGORY LABEL": "inactive"}
{"COMPOUND": "O=C(/C=C/c1ccc(Br)cc1)c1ccccc1", "CATEGORY LABEL": "inactive"}
{"COMPOUND": "COc1cc(Cn2ccc3c2-c2oncc2CC3)cc(OC)c1", "CATEGORY LABEL": "inactive"}
{"COMPOUND": "CC1=C(C)C[C@]2(C(=O)O[C@H]3CCCC[C@@H]32)[S@](=O)C1", "CATEGORY LABEL": "inactive"}
{"COMPOUND": "Clc1ccc(N/N=C/c2ccccn2)nc1", "CATEGORY LABEL": "active"}
{"COMPOUND": "COC(=O)/C=C1/CCCCC1(C)C(=O)OC (stereo unspecified)", "CATEGORY LABEL": "inactive"}
{"COMPOUND": "CC(O)CCC(C)[N+](=O)[O-] (stereo unspecified)", "CATEGORY LABEL": "inactive"}
{"COMPOUND": "Cc1ccc(C(=O)Nc2ccc(CN3CCN(C)CC3)c(C(F)(F)F)c2)cc1C#Cc1cnc(N)c2ccc(C#N)cc12", "CATEGORY LABEL": "inactive"}
{"COMPOUND": "COc1ccc(/C=N/c2cc(C(C)(C)C)nn2-c2ccccc2)cc1", "CATEGORY LABEL": "inactive"}
{"COMPOUND": "COC(=O)c1ccc(C(=Nc2ccc(N(C)C(=O)CN3CCN(C)CC3)cc2)c2c(O)[nH]c3ccc(C(=O)OC)cc23)cc1", "CATEGORY LABEL": "inactive"}
{"COMPOUND": "C/C(=C\\c1ccc2ccccc2c1)[N+](=O)[O-]", "CATEGORY LABEL": "inactive"}
{"COMPOUND": "O=C(NC1CCN(Cc2ccccc2)CC1)c1cc(-c2cccnc2)nc2ccc(Cl)cc12", "CATEGORY LABEL": "inactive"}
